The origin of these recorded values is PubChem BioAssay (NCI).

system: NCI-H226 lung; assay: NCI-60 one-dose screen, 48 h; conditions: 10 µM unless noted
Compounds without any hit were thinned out: in the full panel of roughly 83,000, 20% have a hit. Activity calls are given as the source filed them. How the source made its calls: active means growth percent below 10; inactive means the rest.
Answer with one of the outcomes active, inactive

Query: # fetch the recorded call for COc1cc(C2=NOC(c3cc(OC)c(OC)c(OC)c3)C2)ccc1OCCCCOc1cc2c(cc1OC)C(=O)N1CCC[C@H]1C=N2 (some centres undefined) here
Result: active

Query: And the next one, COc1ccc(C2CC(c3cccc(Nc4ccnc5cc(Cl)ccc45)c3)=NN2c2ccc(Cl)cc2)cc1 (centres undefined) ?
Result: inactive

Query: And the next one, "CC[C@H](Nc1nc(N)nc(N)c1Cl)c1nc2cccc(NCc3ccc(C(=O)NO)cc3)c2c(=O)n1-c1ccccc1" ?
Result: active

Query: And the next one, "Cc1ccc(NC(=O)c2nc(S(C)(=O)=O)oc2-c2ccc(F)cc2)cc1Nc1ccc2ncn(C)c(=O)c2c1" ?
Result: inactive

Query: And the next one, "CC(C)COC(=O)NC(C)(C)C" ?
Result: inactive

Query: And the next one, "O=C(CSc1ccc(Cl)cc1)Nc1ccc(-c2nc3ccccc3s2)c(Cl)c1" ?
Result: inactive

Query: And the next one, C#CC[C@@H]1C[C@]2(C)[C@H]3CC[C@@H]4[C@H]5C(C(=C)C)CC[C@]5(C(=O)NCCCN5CCN(CCCN)CC5)CC[C@@]4(C)[C@]3(C)CC[C@H]2C(C)(C)[C@H]1OC(C)=O (some centres undefined) ?
Result: inactive

Query: And the next one, "CC1=NOCC(=O)N1" ?
Result: inactive

Query: And the next one, "CCN(CC)C(Cl)=Nc1ccc(Cl)cc1" ?
Result: inactive
